System: MS2 coat protein
assayOverview: apparent KD of MS2 coat protein; designed switch direction (-1 OFF switch, 1 ON switch): -1; higher = weaker reporter binding
assaySetup: Eterna round: R95; input ligand: microRNA oligo, concentration not stated
apparent KD of MS2 coat protein values for the sequences below.
Output spec: scalar in nM, unitless text.

Solved cases (2 shown):
- sequenceData: "UCGCUGCGAGGAUAUACAUGAGGAUCACCCAUGUACGGGUCCGGGUCUUCGUCCAUUGGUAGAAGGCGCAGUGA [JL Laongeedie mod 7] (puzzle: Exclusion 3)"
  uom: "nM"
  apparent KD of MS2 coat protein: 22.5
- sequenceData: "CCUGCACAUGAGGAUCACCCAUGUCAGGAUAUCUCGCCGUGUGGAGCAACACGGUAUAAGAGAAGGGACACGGG [Gegexeusre] (puzzle: Exclusion 1)"
  uom: "nM"
  apparent KD of MS2 coat protein: 22.8

# ---- query sequence ----
In: Supply recorded apparent KD of MS2 coat protein for CGGGAGGGACAAGCUUUUUGCACGUCUGUUAUUGAUGCAACAUGAGGAUCACCCAUGUUUAGGGUGUGAGAGGAUGG [JR_SV3TOV2_Sub051] (puzzle: Sensor v3, turn-off variant 2) here.
Out: 471

====

Tested on: MS2 coat protein
assayOverview: apparent KD of MS2 coat protein; designed switch direction (-1 OFF switch, 1 ON switch): 1; higher = weaker reporter binding
assaySetup: input ligand: microRNA oligo, concentration not stated
Please enter T where apparent KD of MS2 coat protein is greater than or equal to 0.1 µM, and F where it is lower.

See these solved cases before continuing.
- sequenceData: "GGUAGGUUACUACCAACACAUGAGGAUCACCCAUGUUUUCAUGAGGAUAUGGUACCUAUUUGGUACCAGAAGGCAUGGUUAAUU [Fiskers NG3ss - 18] (Eterna round: R96, puzzle: Same State NG 3)"
  cat: "F"
- sequenceData: "AACAAACAUGAGGAUCACCCAUGUACAGACCUGGACAUUGUCGAGGAUAUCAGCAAGAAAACAGCUGAGAAGGUGACGCCAGAG [Eternabot solution 6] (Eterna round: R96, puzzle: Same State NG 3)"
  cat: "F"
- sequenceData: "AGCACGGGAUUGGAGGAUAUGUUGUUUGCAACAUGAGGAUCACCCAUGUCUGAGGCUGAAAAGCAGCAGAAGGCCGAUACAACCA [SS2-1.2] (Eterna round: R96, puzzle: Same State 2)"
  cat: "T"
- sequenceData: "AUAAGGCAAGCUUUUUUCUCGUAGUGUAAACAUGAGGAUCACCCAUGUGCCCACCCUGGAUCUUUGGAUCGCGGAAC [Raxesori] (Eterna round: R96, puzzle: Sensor for hsa-mir-208a)"
  cat: "F"
- sequenceData: "GGUACCAACACAGGAUAUGCUAUCCUUUGGGUAGCAGAAGGGUGAAACAUGAGGAUCACCCAUGUGGUGCCAGGGCGUGAGCCC [JL SSNG1 1.93] (Eterna round: R96, puzzle: Same State NG 1)"
  cat: "T"
- sequenceData: "UUUGGGUGGCUGGAGGAUAUCCUGGUUGUUACAUGAGGAUCACCCAUGUGCCGCGCGGUUCGCGAGGAGAAGGCUGGCGGCCGUU (Eterna round: R96, puzzle: Same State 2)"
  cat: "F"
- sequenceData: "GGCCAGAGUCAAGGAUAUGCUACCGUUUCGGUAGCAGAAGGUGAUCACAUGAGGAUCACCCAUGUAUACGCUGGAAAGCGGGCC [JL SSNG1 3.64] (Eterna round: R96, puzzle: Same State NG 1)"
  cat: "T"

# input for lookup
In: Can GGCGAACAGGCUAACAUGAGGAUCACCCAUGUGGACUCAUGUUAGGAUAUCGGGAAGGAGGAAACCGAGAAGGGACGGUGAGCU [AK SSNG3-V2-45] (Eterna round: R96, puzzle: Same State NG 3) be said to have apparent KD of MS2 coat protein at or above 0.1 µM?
Out: F

FYI, the data here is from the supplement of paper PMC9170038.
